# assay system: recombinant guanylate cyclase reporter cell line (Rattus norvegicus, UniProt P20595)
# Sequence (P20595 whole entry): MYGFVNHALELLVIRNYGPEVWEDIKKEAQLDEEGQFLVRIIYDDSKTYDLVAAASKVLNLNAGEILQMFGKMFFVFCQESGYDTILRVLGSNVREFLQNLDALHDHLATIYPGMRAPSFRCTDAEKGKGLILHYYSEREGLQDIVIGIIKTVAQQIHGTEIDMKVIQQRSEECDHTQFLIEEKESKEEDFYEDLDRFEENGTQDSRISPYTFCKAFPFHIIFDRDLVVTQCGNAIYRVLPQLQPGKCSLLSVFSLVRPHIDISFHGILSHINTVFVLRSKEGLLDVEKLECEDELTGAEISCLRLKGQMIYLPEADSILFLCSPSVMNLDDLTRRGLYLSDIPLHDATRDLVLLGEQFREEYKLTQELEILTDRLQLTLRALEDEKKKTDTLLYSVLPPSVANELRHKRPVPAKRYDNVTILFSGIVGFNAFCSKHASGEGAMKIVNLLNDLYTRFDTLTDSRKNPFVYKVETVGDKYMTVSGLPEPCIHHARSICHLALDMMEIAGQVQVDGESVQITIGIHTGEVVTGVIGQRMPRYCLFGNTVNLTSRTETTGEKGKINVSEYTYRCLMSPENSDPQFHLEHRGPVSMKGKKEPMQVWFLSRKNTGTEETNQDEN
# Sequence (P19686 whole entry partner): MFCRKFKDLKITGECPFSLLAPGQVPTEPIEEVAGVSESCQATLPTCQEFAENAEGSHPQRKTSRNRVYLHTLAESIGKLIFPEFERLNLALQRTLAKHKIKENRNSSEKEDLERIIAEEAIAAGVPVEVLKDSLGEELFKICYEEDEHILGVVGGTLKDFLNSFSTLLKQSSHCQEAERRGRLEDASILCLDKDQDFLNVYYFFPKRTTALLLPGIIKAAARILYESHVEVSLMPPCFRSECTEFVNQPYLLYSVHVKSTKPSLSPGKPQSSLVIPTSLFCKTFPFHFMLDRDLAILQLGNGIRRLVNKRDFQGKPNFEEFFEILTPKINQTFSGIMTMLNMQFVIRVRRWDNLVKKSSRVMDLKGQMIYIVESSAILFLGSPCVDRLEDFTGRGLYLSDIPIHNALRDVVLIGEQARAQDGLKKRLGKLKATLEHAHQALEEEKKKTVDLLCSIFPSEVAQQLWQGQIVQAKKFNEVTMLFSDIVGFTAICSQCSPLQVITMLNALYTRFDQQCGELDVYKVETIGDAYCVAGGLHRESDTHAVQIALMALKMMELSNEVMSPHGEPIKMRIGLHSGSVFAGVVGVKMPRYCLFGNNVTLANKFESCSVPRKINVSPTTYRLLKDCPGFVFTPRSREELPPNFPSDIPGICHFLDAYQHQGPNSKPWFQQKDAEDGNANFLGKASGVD
# protocol details: Effect on a recombinant guanylate cyclase reporter cell line
# measurement parameters: half maximal effective concentration; in some cases mean values from individual determinations
Structures can show the parent of a compound that is named as a salt.
// returns F unless EC50 is strictly below 20 nM, in which case T

compound: O=C(O)c1cnn(C2CCCN(c3cc(Cl)ccc3-c3ccc(N4CCN(CC56CC(F)(C5)C6)CC4)cc3)C2)c1C(F)(F)F (single isomer, unassigned) [Example 24, hydrochloride]
label: T
--
compound: CC(C)N1CCN(c2ccc(-c3ccc(Cl)cc3N3CCCC(n4ncc(C(=O)O)c4C(F)(F)F)C3)cc2)CC1 (single isomer, unassigned) [Example 6, hydrochloride]
label: F
--
compound: CCCN1CCN(c2ccc(-c3ccc(Cl)cc3N3CCCC(n4ncc(C(=O)O)c4C(F)(F)F)C3)cc2)CC1 (single isomer, unassigned) [Example 4, hydrochloride]
label: T
--
compound: O=C(O)c1cnn(C2CCCN(c3cc(Cl)ccc3-c3ccc(N4CCN(CC5(F)CC5)CC4)cc3)C2)c1C(F)(F)F (single isomer, unassigned) [Example 9, hydrochloride]
label: T
--
compound: O=C(O)c1cnn(C2CCCN(c3cc(Cl)ccc3-c3ccc(N4CCN(CCC(F)(F)F)CC4)nc3)C2)c1C(F)(F)F (single isomer, unassigned) [Example 76, hydrochloride]
label: T
--
compound: O=C(O)c1cnn(C2CCCN(c3cc(Cl)ccc3-c3ccc(C4CC4)nc3)C2)c1C(F)(F)F (single isomer, unassigned)
label: T
--
compound: O=C(O)c1cnn(C2CCCN(c3cc(Cl)ccc3-c3ccc(N4CCN(CC5CC(F)(F)C5)CC4)cc3)C2)c1C(F)(F)F (single isomer, unassigned) [Example 20, hydrochloride]
label: T
--
compound: O=C(O)c1cnn(C2CCCN(c3cc(Cl)ccc3-c3ccc(N4CCN(CC5CC(F)C5)CC4)cc3)C2)c1C(F)(F)F (single isomer, unassigned) [Example 22, hydrochloride]
label: T
--
compound: CC(C)(F)CN1CCN(c2ccc(-c3ccc(Cl)cc3N3CCCC(n4ncc(C(=O)O)c4C(F)(F)F)C3)cc2)CC1.Cl (single isomer, unassigned) [Example 10, hydrochloride]
label: F
--
compound: O=C(O)c1cnn(C2CCCN(c3cc(Cl)ccc3-c3ccc(N4CCN(C(=O)C5CC56CC6)CC4)cc3)C2)c1C(F)(F)F (single isomer, unassigned)
label: F
